Test: blockers of measles virus-induced cell death – single point, MLSMR library, absorbance, measles RdRp inhibitor project, primary screen (AID 841)
Conditions: Measles virus-infected cells, CPE protection, at 4 µM
The whole screen tested about 140,000 compounds, of which about 2,100 (1.5%) were called active. Cut-off read from the data, not from the text of the source: active = protection mostly above about 24% (no sharp cut-off); inactive = mostly below about 26%. What follows is part of a selection rich in actives, with near analogues and random picks from the rest.
One label from this list, please: yes for active, no for inactive

QUERY: Call for entry "Cc1cc(C)cc(OCC(=O)NNC(=O)CCN2C(=O)c3ccccc3C2=O)c1" :
RESULT: no

QUERY: Query: recorded result category for "O=C(Nc1cccc(S(=O)(=O)N2CCCCC2)c1)c1ccc2c(c1)OCO2" in this test
RESULT: no

QUERY: Give the logged outcome of this assay for the following compound: "COc1ccc(-c2csc(NC(=O)CCCc3cccs3)n2)cc1"
RESULT: no

QUERY: For this compound, state the assay outcome: "Cc1n[nH]c(=S)n1/N=C/c1ccc(Br)o1"
RESULT: no

QUERY: Which outcome was entered for the compound OC(COc1ccccc1)Cn1cc(Br)cn1 (stereo unspecified) in this test?
RESULT: no

Further cases:
QUERY: What did this assay record as the result for "CCNC(=S)N1CCN(C(=O)c2ccco2)CC1" ?
RESULT: no

QUERY: // return assay outcome for "CN(C)c1ccc(/C=N/NC(=O)c2ccc(Cn3cc(Br)cn3)o2)cc1"
RESULT: yes

QUERY: Recorded test call requested for "Cc1ccc(NC(=S)N2CCN(c3ncccn3)CC2)cc1C"
RESULT: no

QUERY: What is the recorded call for this compound in the test? "O=C1CCCC(O)=C1N=Nc1ccc2ncsc2c1"
RESULT: no

QUERY: Hi team, can someone confirm the assay call for "COc1ccc(NC(=O)CN(Cc2ccccc2)S(C)(=O)=O)cc1OC" ?
RESULT: no

QUERY: Could you check what this test reported for "CCOC(=O)c1c(NC(=O)c2ccc(Br)o2)sc2c1CCCC2" ?
RESULT: yes

QUERY: Tell me the recorded outcome of this test for "CONc1nc2nonc2nc1NOC" .
RESULT: no

QUERY: State the result this test recorded for "CCOC(=O)NCc1ccc2c(c1)OCO2" .
RESULT: no

QUERY: Call for entry "CC1(C)C=C2[C@H]3CC[C@@H]4[C@@]5(C)CCC(=O)C(C)(C)[C@@H]5CC[C@@]4(C)[C@]3(C)CC[C@@]2(C(=O)O)CC1" :
RESULT: yes

QUERY: What is the recorded call for this compound in the test? "c1n[nH]c(NCc2ccc3c(c2)OCO3)n1"
RESULT: yes

QUERY: Name the outcome recorded for "O=C(COC(=O)/C=C/c1nc2ccccc2s1)Nc1ccccc1Oc1ccccc1" in the assay.
RESULT: no

QUERY: Called result for "Cc1cc(NC(=O)CSc2nnc(-c3ccc(Cl)s3)o2)no1"
RESULT: yes

QUERY: Write down the call the test reported for this compound. Item: "O=C(CN1CCc2ccccc21)NC(c1ccccc1)c1ccccc1"
RESULT: no

QUERY: Name the outcome recorded for "COc1ccccc1-c1nnc(NC(=O)c2ccc3ncsc3c2)o1" in the assay.
RESULT: no

QUERY: State the result this test recorded for "CCOc1cc(C2C(C(=O)OC)=CN(C3CCCC3)C=C2C(=O)OC)cc(Br)c1O" .
RESULT: no

QUERY: What is the recorded call for this compound in the test? "O=C(CCc1[nH]c2ccccc2c1Sc1ccccc1)N(CCO)CCO"
RESULT: no

QUERY: Look up the recorded call for "COc1ccc(C)cc1NC(=O)CCC(=O)Nc1nnc(C(F)(F)F)s1" in this test.
RESULT: no
